TARGET ENTITY: 5-hydroxytryptamine receptor 6 (Homo sapiens, UniProt P50406)
Sequence (P50406 whole entry): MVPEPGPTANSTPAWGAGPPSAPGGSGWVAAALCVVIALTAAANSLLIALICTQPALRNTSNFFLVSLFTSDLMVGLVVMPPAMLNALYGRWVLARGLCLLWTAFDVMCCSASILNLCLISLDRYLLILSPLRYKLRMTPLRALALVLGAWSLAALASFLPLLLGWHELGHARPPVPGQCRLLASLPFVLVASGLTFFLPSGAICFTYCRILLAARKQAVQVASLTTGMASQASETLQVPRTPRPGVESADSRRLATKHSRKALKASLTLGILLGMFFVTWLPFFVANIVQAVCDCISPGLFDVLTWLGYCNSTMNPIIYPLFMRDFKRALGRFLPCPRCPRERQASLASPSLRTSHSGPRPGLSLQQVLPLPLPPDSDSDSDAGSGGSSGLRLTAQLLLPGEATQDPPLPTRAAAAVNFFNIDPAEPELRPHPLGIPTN
ASSAY OVERVIEW: Displacement of [3H]-LSD from human 5-HT6R expressed in HEK293 cells after 1 hr by microbeta plate reader analysis
Type: cell-based
Answer each item with its documented Ki.
One number for each entry, in µM.

{"COMPOUND": "COc1cccc(-c2ccc(CNC(C)Cc3cn(C)c4ccccc34)o2)c1 (centres undefined)", "UNIT TEXT": "µM", "Ki": 1.03}

List reported Ki for each of these compounds:
1. c1ccc(-c2ccc(CNCCc3c[nH]c4ccccc34)s2)cc1
2. CC(C)Oc1cccc(-c2ccc(CNCCc3c[nH]c4ccccc34)o2)c1
3. c1ccc2c(-c3ccc(CNCCc4c[nH]c5ccccc45)s3)cccc2c1

[0.152, 0.486, 0.418]
